test: Selectivity index, ratio of CC50 for human WI-38 cells to MIC for Mycobacterium tuberculosis H37Rv; format: toxicity; details: read-out: Selectivity Index
Label label 1 when selectivity ratio >= 70; otherwise label 0.

Solved entries (count: 6):
COMPOUND	ANSWER LABEL
O=C1S/C(=C\c2cnc(C(F)(F)F)nc2)C(=O)N1C(=O)c1ccc(C(F)(F)F)cc1	label 1
O=C1S/C(=C\c2cnc(C(F)(F)F)nc2)C(=O)N1C(=O)c1ccc(Cl)cc1	label 0
O=C1S/C(=C\c2cnc(C(F)(F)F)nc2)C(=O)N1C(=O)c1ccc([N+](=O)[O-])cc1	label 0
O=C1S/C(=C\c2cnc(C(F)(F)F)nc2)C(=O)N1C(=O)c1ccc(Br)cc1	label 0
O=C1S/C(=C\c2cnc(C(F)(F)F)nc2)C(=O)N1C(=O)c1ccccc1	label 0
O=C1S/C(=C\c2cnc(C(F)(F)F)nc2)C(=O)N1C(=O)c1ccc(O)cc1	label 0

Data request: Evaluate O=C1S/C(=C\c2cnc(C(F)(F)F)nc2)C(=O)N1C(=O)c1ccc(F)cc1 : selectivity ratio at minimum 70?
Data returned: label 0

Data request: Kindly determine if selectivity ratio recorded for NNC(=O)c1ccncc1 [ISONIAZID] is above or exactly 70.
Data returned: label 1

Data request: Could you please find out whether O=C1S/C(=C\c2cnc(C(F)(F)F)nc2)C(=O)N1C(=O)c1cc(F)c(F)c(F)c1 has selectivity ratio that meets 70 or exceeds it?
Data returned: label 1

Data request: Could you verify whether the entry Cc1ccc(C(=O)N2C(=O)S/C(=C\c3cnc(C(F)(F)F)nc3)C2=O)cc1 shows selectivity ratio of no less than 70?
Data returned: label 0
